Parameter protein stability index: see the listing below.
Assay: protein stability index of a GFP-peptide fusion (GPS, HEK-293T) (PSI 1-6); higher = more stable;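 further: 24-mer peptide tiles fused after GFP, lentivirally expressed, FACS-sorted into six equal bins by GFP/DsRed ratio, decoded by Illumina sequencing, PSI is the read-weighted mean bin number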
Conditions: treatment: DMSO; c terminus: a fixed tail appended
Respond with the number and no other words.

Worked examples follow.
VVMNLDSRLLIFPLYICCNFLYIS [GMCL1] | 2.59
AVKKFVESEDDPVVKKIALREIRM [CDKL4] | 2.52
CRYATQLQQIQGLIGGLEAQLSEL [KRT15] | 2.23

Please find the next sequence below.
# input Tell me measured protein stability index for GTTLRGRSDADLVVFLSPLTTFQD [OAS1] please.
# output 2.18

----------
Experiment: protein stability index of a GFP-peptide fusion (GPS, HEK-293T) (PSI 1-6); higher = more stable
Details: treatment: MLN4924 1 uM, 8 h; c terminus: a fixed tail appended
Mark not fulfilled for protein stability index values under 3, and fulfilled for everything at or above.

EESILERVQQHIESKLLGSNSSRM [MLH1] | fulfilled
FSVTGGTEEKSSLLMSCLACDTWA [RPAIN] | not fulfilled
SAPATAKENAAAPSPVRAPAPSPA [PALM] | fulfilled
YTSQITVEEGNVQTLLPAACLLQL [KLHL20] | not fulfilled

# input Is protein stability index for QSCLLVIFATKPHVLPAVLAEVAP [PYCR3] at or above 3?
# output fulfilled

# input Is protein stability index for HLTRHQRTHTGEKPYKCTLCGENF [ZNF263] at or above 3?
# output fulfilled

# input Is protein stability index for GWWKRLFTLKEEKPKMYFMTMIVS [ARL6IP1] at or above 3?
# output not fulfilled

# input Is protein stability index for ITTKIFWGGKAETERGLSRKHIIE [KCNAB2] at or above 3?
# output not fulfilled

# input Is protein stability index for SPVTATLSDEDDGFVDLLDGENLK [CDC25A] at or above 3?
# output fulfilled

# input Is protein stability index for LVDQSKKANSPLKGHERTVQYLQH [VPS39] at or above 3?
# output fulfilled

# input Is protein stability index for AEVWVSGTIFIRNVLLFKKQNPGK [RETREG3] at or above 3?
# output not fulfilled

# input Is protein stability index for FSQSAGLIQHQRIHKGEKPYQCSQ [ZSCAN9] at or above 3?
# output fulfilled

----------
Test: protein stability index of a GFP-peptide fusion (GPS, HEK-293T) (PSI 1-6); higher = more stable
Conditions: treatment: DMSO; c terminus: a fixed tail appended
Mark condition not met for protein stability index values under 4, and condition met for everything at or above.

These recorded examples may help you get a feel for the data.
VTLALFFVLYFLLACWTYGISVPS [CLCN6] | condition not met
LYPSLGAGYRLGPAQPGADSSFPP [TBX6] | condition not met
SLRGRAWQYLSGGKVKLQQNPGKF [TBC1D10A] | condition not met

# input Is protein stability index for RKLLNRHNIVFGDYTWTEFDEPFL [TRIP13] at or above 4?
# output condition not met

# input Is protein stability index for QDVDPVHNLIEQVSLGLGQPWHAV [FBXO33] at or above 4?
# output condition not met

# input Is protein stability index for ISSGLRGCMLIELALRGRLQLEAC [GOLPH3] at or above 4?
# output condition not met

# input Is protein stability index for VCYTACATLKGPDSHYGTKGLKKV [BTBD1] at or above 4?
# output condition not met

# input Is protein stability index for IGPNVLMVHKRSHTGERPFQCNQC [IKZF1] at or above 4?
# output condition not met

# input Is protein stability index for ENRRKVLYQRAPRNIHRHVILSEI [TCF25] at or above 4?
# output condition not met

# input Is protein stability index for LYLIAKRNRKLKCTFSLTHPANRS [SLC22A15] at or above 4?
# output condition not met

# input Is protein stability index for YTSQITVEEGNVQTLLPAACLLQL [KLHL20] at or above 4?
# output condition not met

Just for reference, the supplement of paper PMC10567573 is where these values come from.
